# measured.on: GSK3α (Homo sapiens, UniProt P49840)
# Sequence (P49840 whole entry): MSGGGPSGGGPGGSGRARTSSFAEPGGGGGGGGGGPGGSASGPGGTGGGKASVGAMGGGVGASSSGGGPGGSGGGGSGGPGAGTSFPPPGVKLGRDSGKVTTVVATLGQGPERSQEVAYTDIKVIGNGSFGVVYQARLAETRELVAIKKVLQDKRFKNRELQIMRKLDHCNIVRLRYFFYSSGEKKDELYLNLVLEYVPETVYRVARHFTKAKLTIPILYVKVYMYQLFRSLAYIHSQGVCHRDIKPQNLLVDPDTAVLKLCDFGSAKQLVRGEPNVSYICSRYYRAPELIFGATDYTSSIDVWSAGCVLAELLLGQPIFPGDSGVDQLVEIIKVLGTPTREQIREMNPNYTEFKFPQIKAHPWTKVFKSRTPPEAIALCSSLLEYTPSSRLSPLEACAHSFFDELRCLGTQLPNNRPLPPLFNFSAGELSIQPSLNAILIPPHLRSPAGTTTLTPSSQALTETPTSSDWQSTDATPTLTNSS
# test.details: GSK 3α enzyme inhibition (FRET), Method 1
# Assay type: biochemical
# protocol.conditions: Table 4a1
Would you mind telling me the reported IC50 of each entry?
// note: answer is a bare numeric in µM

Query: IC50; subject: COc1ccc(-n2nc(C(C)(C)C)cc2NC(=O)Nc2ccc(Oc3ccnc(Nc4cccc(C(=O)NCCN5CCOCC5)c4)n3)c3ccccc23)cc1
0.356

Query: IC50; subject: COc1ccc(C(=O)NCCN2CCOCC2)cc1Nc1nccc(Oc2ccc(NC(=O)Nc3cc(C(C)(C)C)nn3-c3ccc(C)cc3)c3ccccc23)n1
9.63

Query: IC50; subject: Cc1ccc(-n2nc(C(C)(C)C)cc2NC(=O)Nc2ccc(Oc3ccnc(Nc4cccc(C(=O)NCCN(C)C)c4)n3)c3ccccc23)cc1
0.295
